Reference source: patent US12303509B2

Molecular target: P-gp (MDR1) (Homo sapiens (Human))
Sequence (P08183 whole entry, species assumed): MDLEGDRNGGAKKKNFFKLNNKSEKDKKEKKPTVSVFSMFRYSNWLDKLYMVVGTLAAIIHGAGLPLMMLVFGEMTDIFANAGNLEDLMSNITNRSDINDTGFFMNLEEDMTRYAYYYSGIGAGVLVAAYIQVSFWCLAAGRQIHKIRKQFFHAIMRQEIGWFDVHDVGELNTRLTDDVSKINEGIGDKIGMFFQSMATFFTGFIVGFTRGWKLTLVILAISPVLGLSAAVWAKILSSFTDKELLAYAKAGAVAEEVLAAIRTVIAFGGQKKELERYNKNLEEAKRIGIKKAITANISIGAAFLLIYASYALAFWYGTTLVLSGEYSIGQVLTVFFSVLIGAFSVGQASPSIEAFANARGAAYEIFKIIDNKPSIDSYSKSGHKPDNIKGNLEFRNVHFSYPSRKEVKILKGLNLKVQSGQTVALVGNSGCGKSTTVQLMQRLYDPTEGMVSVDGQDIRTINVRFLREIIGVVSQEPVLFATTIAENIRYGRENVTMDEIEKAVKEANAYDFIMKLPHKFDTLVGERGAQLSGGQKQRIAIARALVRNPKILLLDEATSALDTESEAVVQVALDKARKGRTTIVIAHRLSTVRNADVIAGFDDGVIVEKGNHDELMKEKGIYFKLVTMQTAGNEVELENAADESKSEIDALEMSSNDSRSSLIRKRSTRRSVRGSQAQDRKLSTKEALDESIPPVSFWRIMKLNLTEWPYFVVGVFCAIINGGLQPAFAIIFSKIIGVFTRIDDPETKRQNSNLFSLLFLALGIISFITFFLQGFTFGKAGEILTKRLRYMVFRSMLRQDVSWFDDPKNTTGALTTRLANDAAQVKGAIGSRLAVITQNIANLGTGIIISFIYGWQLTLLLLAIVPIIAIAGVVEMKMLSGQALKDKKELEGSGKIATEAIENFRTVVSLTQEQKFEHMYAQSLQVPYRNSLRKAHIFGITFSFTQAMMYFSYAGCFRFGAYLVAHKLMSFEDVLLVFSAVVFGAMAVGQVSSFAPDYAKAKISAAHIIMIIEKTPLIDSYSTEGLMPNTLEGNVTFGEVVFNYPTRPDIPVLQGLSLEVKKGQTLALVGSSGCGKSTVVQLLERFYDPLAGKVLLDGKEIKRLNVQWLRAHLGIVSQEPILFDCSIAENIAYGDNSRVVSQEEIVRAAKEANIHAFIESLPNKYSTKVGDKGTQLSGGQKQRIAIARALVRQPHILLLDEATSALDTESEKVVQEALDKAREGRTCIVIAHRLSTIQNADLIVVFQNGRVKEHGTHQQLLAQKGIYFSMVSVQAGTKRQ
Assay: MDR1 LLC-PK1 permeability assay: efflux ratio
Type: in vitro ADME
Settings: pig
Where a name gives a salt, the structure may show the parent alone.
# key: entry, value: efflux ratio at 2 h, 1 µM
Could you keep your reply to the number by itself?

Worked examples, 3 molecules total:
molecule: CO[C@@H]1CCN(S(=O)(=O)Nc2ccc(F)c(Nc3ccc4ncn(C)c(=O)c4c3Cl)c2Cl)C1
test target: P-gp (MDR1) (Homo sapiens (Human))
efflux ratio at 2 h, 1 µM: 1.9
//
molecule: Cn1cnc2ccc(Oc3c(F)ccc(NS(=O)(=O)N4CC[C@@H](F)C4)c3Cl)c(Cl)c2c1=O
test target: P-gp (MDR1) (Homo sapiens (Human))
efflux ratio at 2 h, 1 µM: 1.2
//
molecule: [2H]C([2H])([2H])O[C@@H]1CCN(S(=O)(=O)Nc2ccc(F)c(Nc3ccc4ncn(C)c(=O)c4c3F)c2Cl)C1 [Example 54, trifluoroacetate]
test target: P-gp (MDR1) (Homo sapiens (Human))
efflux ratio at 2 h, 1 µM: 3.6

State the recorded efflux ratio at 2 h, 1 µM for this entry: Cn1cnc2ccc(Oc3c(F)ccc(NS(=O)(=O)N4CC5CC4C5)c3Cl)c(Cl)c2c1=O
1.4

Next molecule up: Cc1c(Oc2c(F)ccc(NS(=O)(=O)N3CC[C@@H](F)C3)c2Cl)ccc2ncn(C)c(=O)c12
1.8

* * *

System: H1755 cells
Test: Cellular phospho-ERK inhibition assay in H1755 cells
Assay type: cell-based
Details: Homo sapiens, NCI-H1755, 2 hours treatment, read-out: H1755 Cell IC50
Where a name gives a salt, the structure may show the parent alone.
Reported IC50 values follow for various compounds
Could you give me the number in nM? Just the number is fine.

compound: Cc1c(Nc2c(F)ccc(NS(=O)(=O)N3CC(C)(F)C3)c2Cl)ccc2ncn(C)c(=O)c12 [Example 155, trifluoroacetate]
IC50 (nM): 1770

compound: Cn1cnc2ccc(Oc3c(F)ccc(NS(=O)(=O)N4CCCC4)c3Cl)c(F)c2c1=O [Example 44, trifluoroacetate]
IC50 (nM): 56

compound: CO[C@@H]1CCN(S(=O)(=O)Nc2ccc(F)c(Nc3ccc4ncn(C)c(=O)c4c3C)c2Cl)C1
IC50 (nM): 103

Then there is this compound:
For CCN(C)S(=O)(=O)Nc1cc(F)c(F)c(Nc2ccc3ncn(C)c(=O)c3c2F)c1Cl , what is its reported IC50?
102

* * *

Target: BCRP (Homo sapiens (Human), UniProt Q9UNQ0)
Sequence (Q9UNQ0 whole entry): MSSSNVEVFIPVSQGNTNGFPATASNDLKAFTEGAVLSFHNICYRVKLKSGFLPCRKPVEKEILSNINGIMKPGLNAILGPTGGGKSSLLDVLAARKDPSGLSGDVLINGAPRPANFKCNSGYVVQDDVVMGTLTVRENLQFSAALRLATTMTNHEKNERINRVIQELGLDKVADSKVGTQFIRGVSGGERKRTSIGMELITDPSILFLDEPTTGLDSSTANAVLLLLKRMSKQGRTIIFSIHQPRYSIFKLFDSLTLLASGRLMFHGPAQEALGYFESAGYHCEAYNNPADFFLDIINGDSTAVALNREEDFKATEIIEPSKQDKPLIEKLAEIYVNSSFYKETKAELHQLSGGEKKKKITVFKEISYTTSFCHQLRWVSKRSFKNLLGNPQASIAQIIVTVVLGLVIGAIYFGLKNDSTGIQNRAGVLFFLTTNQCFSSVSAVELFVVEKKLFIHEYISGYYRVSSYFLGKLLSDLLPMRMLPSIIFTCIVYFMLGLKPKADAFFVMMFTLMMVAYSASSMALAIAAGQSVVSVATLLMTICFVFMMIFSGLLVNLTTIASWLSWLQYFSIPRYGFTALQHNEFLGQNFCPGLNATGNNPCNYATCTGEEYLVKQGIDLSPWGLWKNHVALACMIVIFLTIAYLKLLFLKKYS
Assay: BCRP MDCKII permeability assay: efflux ratio
Format: in vitro ADME
Settings: dog
Structures can show the parent of a compound that is named as a salt.
Classification field: enter fulfilled for efflux ratio at 2 h, 1 µM values not below 2, not fulfilled for values below it.

compound: CO[C@H]1CN(S(=O)(=O)Nc2ccc(F)c(Nc3ccc4ncn(C)c(=O)c4c3C)c2Cl)C[C@@H]1F (relative stereo) [Example 78]
category: not fulfilled
//
compound: CCN(C)S(=O)(=O)Nc1ccc(F)c(Nc2ccc3ncn(C)c(=O)c3c2Cl)c1Cl [Example 2]
category: not fulfilled
//
compound: Cn1cnc2ccc(Nc3c(F)ccc(NS(=O)(=O)N4CC(F)C4)c3Cl)c(Cl)c2c1=O [Example 126]
category: fulfilled
//
compound: Cc1c(Nc2c(F)ccc(NS(=O)(=O)N3CC4CC4(F)C3)c2Cl)ccc2ncn(C)c(=O)c12 (centres unmarked) [Example 149]
category: fulfilled
//
compound: Cn1cnc2ccc(Oc3c(F)ccc(NS(=O)(=O)N4CC[C@H](F)C4)c3Cl)c(Cl)c2c1=O [Example 107]
category: not fulfilled
//
compound: Cc1c(Oc2c(F)ccc(NS(=O)(=O)N3CC(F)C3)c2Cl)ccc2ncn(C)c(=O)c12 [Example 116]
category: fulfilled
//
compound: Cn1cnc2ccc(Nc3c(F)c(F)cc(NS(=O)(=O)N4CC[C@@H](F)C4)c3Cl)c(F)c2c1=O [Example 46, trifluoroacetate]
category: fulfilled
//
compound: Cn1cnc2ccc(Nc3c(F)ccc(NS(=O)(=O)N4CC[C@H](F)C4)c3Cl)c(Cl)c2c1=O [Example 28]
category: not fulfilled
//
compound: Cc1c(Oc2c(F)ccc(NS(=O)(=O)N3CC4CC4C3)c2Cl)ccc2ncn(C)c(=O)c12 (centres unmarked) [Example 91]
category: not fulfilled
//
compound: Cc1c(Nc2c(F)ccc(NS(=O)(=O)N3CC[C@@H](F)C3)c2F)ccc2ncn(C)c(=O)c12 [Example 114, trifluoroacetate]
category: fulfilled

API: above_or_equal(metric=efflux ratio at 2 h, 1 µM, cutoff=2) for item Cn1cnc2ccc(Nc3c(F)ccc(NS(=O)(=O)N4CCCC4)c3Cl)c(Cl)c2c1=O [Example 12, trifluoroacetate]
not fulfilled

Continue with CO[C@@H]1CCN(S(=O)(=O)Nc2ccc(F)c(Nc3ccc4ncn(C)c(=O)c4c3F)c2Cl)C1 [Example 5]
fulfilled

Repeat with [2H]C([2H])([2H])O[C@@H]1CCN(S(=O)(=O)Nc2ccc(F)c(Nc3ccc4ncn(C)c(=O)c4c3C)c2Cl)C1 [Example 55, trifluoroacetate]
not fulfilled

What do we get for Cn1cnc2ccc(Nc3c(F)ccc(NS(=O)(=O)N4CC(COC(F)F)C4)c3Cl)c(Cl)c2c1=O [Example 138, trifluoroacetate] ?
fulfilled
